The reported measurements were obtained from patent US8735412B2.

Target: CDK1/CycB (Homo sapiens)
Sequence (P06493 whole entry): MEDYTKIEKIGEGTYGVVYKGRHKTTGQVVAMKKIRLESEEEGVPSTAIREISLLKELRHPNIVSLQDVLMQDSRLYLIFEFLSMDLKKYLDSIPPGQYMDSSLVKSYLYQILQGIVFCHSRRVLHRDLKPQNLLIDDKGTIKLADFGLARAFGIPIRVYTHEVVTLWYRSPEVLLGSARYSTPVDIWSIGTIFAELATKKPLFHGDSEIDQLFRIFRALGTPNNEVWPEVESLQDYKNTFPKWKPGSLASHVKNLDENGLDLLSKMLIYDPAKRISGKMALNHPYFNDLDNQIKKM
Sequence (P14635 whole entry partner): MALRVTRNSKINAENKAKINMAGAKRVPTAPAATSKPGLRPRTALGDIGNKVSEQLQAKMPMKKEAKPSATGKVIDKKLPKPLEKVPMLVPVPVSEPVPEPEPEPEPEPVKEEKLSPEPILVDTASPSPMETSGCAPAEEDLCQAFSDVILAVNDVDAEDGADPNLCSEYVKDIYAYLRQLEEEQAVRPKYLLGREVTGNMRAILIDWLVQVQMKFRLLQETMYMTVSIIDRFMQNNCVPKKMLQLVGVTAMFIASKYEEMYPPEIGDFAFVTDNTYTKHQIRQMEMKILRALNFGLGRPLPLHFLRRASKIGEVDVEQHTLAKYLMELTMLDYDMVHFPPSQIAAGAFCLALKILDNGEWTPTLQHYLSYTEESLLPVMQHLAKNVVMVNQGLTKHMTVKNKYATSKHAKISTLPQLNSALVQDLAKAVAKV
Experiment: CDK1/CycB kinase assay (Assay 1)
Settings: 0.5 μM ATP, histon IIIS substrate; read-out: CDK1/CycB (Assay 1) Concentration for 50% inhibition of enzyme activity, IC50
pIC50: −log10 of the molar value.
The reader will find reported pIC50 values listed item by item below.
Metric Name: pIC50

* CCS(=N)(=O)c1ccc(Nc2ncc(Br)c(N[C@H](C)[C@@H](C)O)n2)cc1 (stereo partly shown) [Example V12] | 8.52
* C[C@@H](Nc1nc(Nc2ccc([S@](=N)(=O)C3CC3)cc2)ncc1Br)C(C)(C)O [Example V11] | 8.10
* C[C@@H](O)[C@@H](C)Oc1nc(Nc2ccc(S(C)(=N)=O)cc2)ncc1Br (stereo partly shown) [Example V13] | 8.52
* C[C@@H](O)[C@@H](C)Oc1nc(Nc2ccc(S(=N)(=O)C3CC3)cc2)ncc1Br (single isomer, unassigned) [Example V14] | 8.40

====

Readings of IC50 for the listed compounds
Target: CDK2/CycE (Homo sapiens, UniProt P24941)
Assay: CDK2/CycE kinase assay (Assay 2)
Conditions: 0.5 μM ATP, histon IIIS substrate; read-out: CDK2/CycE (Assay 2) Concentration for 50% inhibition of enzyme activity, IC50
Metric Name: IC50 (nM)

• C[C@@H](Nc1nc(Nc2ccc(S(C)(=N)=O)cc2)ncc1C(F)(F)F)C(C)(C)O (single isomer, unassigned) [Example 9-SI-2] = 3
• CCS(=N)(=O)c1ccc(Nc2ncc(Br)c(N[C@H](C)[C@@H](C)O)n2)cc1 (some centres unmarked) = 3
• C[C@@H](Nc1nc(Nc2ccc(S(C)(=N)=O)cc2)ncc1C(F)(F)F)C(C)(C)O (single isomer, unassigned) [Example 9-SI-1] = 5
• C[C@@H](Nc1nc(Nc2ccc([S@](=N)(=O)C3CC3)cc2)ncc1Br)C(C)(C)O = 7
• C[C@@H](O)[C@@H](C)Oc1nc(Nc2ccc(S(=N)(=O)C3CC3)cc2)ncc1Br (single isomer, unassigned) = 7
